experiment: yeast display, Sf9 membrane polyspecificity reagent, FACS + sequencing; frameworks hold sequencing errors
MEASUREMENT_KIND: polyreactivity (PSR sort gate)

Solved entries (count: 4):
INSERT INTO assay_data (biopolymer_sequence, result) VALUES
  ('QVQLVESGGGLVQAGGSLRLSCAASGFTFIGNAMGWYRQAPGKERELVAAISSSGGRTYYADSVKGRFTISRDNAKNTVDLQMNSLKPEDTAVYYCATRQYRGVYYWGQGTQVTVSS', 'high polyreactivity'),
  ('QVQLVESGGGLVQAGGSLRLSCAASGRIFNTYAMGWYRQAPGKERELVAAITSSGGSTYYADSVKGRFTISRDNEKNTVYLQLNSLKPEDTAVYYCAKPWYVRGGSSKYVYWGQGTQVTVSS', 'high polyreactivity'),
  ('QVQLVESGGGLVQAGGSLRISCAASGITITSYAMGWYRQAPGKEWELVASIDSDDSTNYADSVKGRFTISRDNAKNTVYFQMNSLKPEDNAVYYSAATSKPLGLKTYGYWGQGTQVTVSS', 'low polyreactivity'),
  ('QVQLVESGGGLVQAGGSLRLSCAASGFTFNKYAMGWYRQAPGKERELVAAISSSGGSTRYADSVKGRFTISRDNAKNTVYLQMNSLKPEDTADYYCAVYVTSDSGWWLYDYWGQGTQVTVSS', 'high polyreactivity');

Moving on to the next sequence.
For the sequence shown here, QVQLVESGGGLVQAGGRLRLSCAASGSTFHYYAMGWDRQAPGKERELVAAISQSGSGTYYADSVKGLFTISRDNAKKTVYLQMNSLKPEDTAVYYCAKDITGLSRYRRDYWGQGTQVTVSS , give the reported polyreactivity (PSR sort gate).
low polyreactivity

###

assay: yeast display, Sf9 membrane polyspecificity reagent, FACS + sequencing; frameworks hold sequencing errors
MEASUREMENT_KIND: polyreactivity (PSR sort gate)

INSERT INTO results (biopolymer_sequence, result) VALUES
  ('QVQLVESGGGLVQAGGSLRLSCAASGSIFTQYVMGWYRQAPGKERELGAAITWSGGNTYYADSVKGRFTISRDNAKNTVYLQMNSLKPEDTAVYYCAAYKPYSKYNYWGQGTQVTVSS', 'high polyreactivity'),
  ('QVQLVESGGALVQARGSLRLSCAASGRIFGGNAMGWYRHAPGKERDLVADISYGGGSTNYADSVKGRFTISRDNAKNTVYLQMNSLKPADTAVYYCARDAWNTDGAYIGGDYDYWGQGTKVTVSS', 'low polyreactivity'),
  ('QVQLVESGGGLVQAGGSLRLSCAASGSTFVGYAMGWYRQAPGKERELVADIDSIGGSTYYADSVKGRFTISRDNAKNTVYLQMNSLKPEDTAVYYCAARRFDTALVLYDYWGQGTQVTVSS', 'low polyreactivity'),
  ('QVQLVESGGGLVQAGGSLRLSCAASGSIFSYNVMGGYRQAPGKERELVAVITGSGGSTYYADSVKGRFTISRDNAKNTVYLQMNSLKPEDTAVYYCNKDRGTIPPSGNDYWGQGTLVTVSS', 'low polyreactivity');

In the following, a different sequence is considered.
Need polyreactivity (PSR sort gate) of QVQLVESGGGLVQAGGSLRLSCAASGSTVEYNAMGGYRPATGKERELVAAITSGGSTTYADSVKGRFTISRDNAKNTVYLQMNSLKPEDTAVYYCAAVGRRVSAWYYYWGQGTQVTVSS , thanks.
high polyreactivity

###

test: yeast display, Sf9 membrane polyspecificity reagent, FACS + sequencing; frameworks hold sequencing errors
MEASUREMENT_KIND: polyreactivity (PSR sort gate)

Solved entries:
INSERT INTO results (biopolymer_sequence, measurement_kind, result) VALUES
  ('QVQLVESGGGLVQAGGSLRLSCAASGSTFKSYAMGWYRQAPGKERELVAAITHRGSTYYADSVKGRFTTSRDNAKNTVYLQMNSLKPEDTAVYYCNVRRIGNGRRVDYWGQGTQVTVSS', 'polyreactivity (PSR sort gate)', 'high polyreactivity'),
  ('QVQLVESGGGLVQAGGSLRLSCAASGRIFFGYAMGWYRQAPGKERELVATISYNDTSTYYADSVKGRFTISRDNAKNTVYLQMNSLKPEDTAVYYCAKSLGAPASDDYWGQGTQVTVSS', 'polyreactivity (PSR sort gate)', 'low polyreactivity'),
  ('QVQLVESGGGLVQAGGSLRLSSAASAFIFSSYAMGWYRQAPWKERELVAAITRNGGSTYYADSVKGRFTISRDNAKNTVYLQMNSLKPEDTAVYYCAAQRWRGVGRFDYWGQGTQVTVSW', 'polyreactivity (PSR sort gate)', 'high polyreactivity'),
  ('QVQLVESGGGLVQAGCSLRLRCAASGYTFYDYAMGWYRPAPGKERELVAASSSSGGSTYYADSVKGRFTISRDNAKNTGYLQMNSVKPEDTALYYCAVRARRWRYNYWGQGTQVTVSS', 'polyreactivity (PSR sort gate)', 'high polyreactivity'),
  ('QVQLVESGGGLVQAGGSLRLSCAASGSTFKAYAMGWYRQAPGKEREFVAAITRSGGRTYYADSVKGRFTISRDNAKNTVYLQMNSLKPEDTAVYYCAAYTWYAWVSDPTNEYWGQGTQVTVSS', 'polyreactivity (PSR sort gate)', 'low polyreactivity');

Which polyreactivity (PSR sort gate) reading was recorded for the sequence QVQLVESGGGLVQAGGSLRLSCAASGRIFGNYAMGWYRQAPGKERELVAAITSGARTYYADSVKGRFTISRDNAKNTVYLQMNSLKPEDTAVYYCAAYHKSYSYRYDYWGQGTQVTVSS ?
high polyreactivity

Look up polyreactivity (PSR sort gate) for this sequence: QVQLVESGGGLVQAGGSLRLSCAASGSIQVYYAMGWYRQAPGKERELVAAISSGGSTNYADSVKGRFTISRDNAKNTVYLQMNSLKPEDTAVYYCAKESGWVGAIHYDYWGQGTQVTVSS
low polyreactivity

May I ask what polyreactivity (PSR sort gate) has been recorded for QVQLVESGGGLVQAGGSLRLSCAASGSIFWRNAMGWYRQAQGKEREFVATITWSGDSTYYADSVKGRFTISRDNAKNTVYLQMNSLKPEDTAVYYCATDWRNWGYDSWGQGTQVTVSS ?
low polyreactivity

// polyreactivity (PSR sort gate) lookup, key: QVHLVESGGGLVQAGGSLRLSCAASGSNYSYYGMGWYRQAPGKERELVAAITDGDGTNYADSVKGRFTISRDNAKNTVYLQMNSLIPEDTAVYYCNRDFWYGVSPGREFYLYDYWGQGTLVTVSS
low polyreactivity

Value lookup for polyreactivity (PSR sort gate); key = QVQLVESGGGLVQAGGSLRISCAASGSNFNPYDMGGYRQAPGKESELVAAIRTAGSTYYADSVKGRFTISRDNAKNTVYLQMISLNPEDTAVYYCNADEGFLYSAYEYDYWGQGTQVTVSS
low polyreactivity

What value of polyreactivity (PSR sort gate) has been reported for the following sequence? QVQLEESGGGLVQAGGSLRLSCAASGSIFYSNAMGWYRQAPGKERELVAAISVSGVSTYYADSVKGRFTISRDNAKNTVYLQMNSLKPEDTAVYYCAAQYVTRGLYLVAFFSYDYWGQGTQVTVSS
low polyreactivity

###

assay: yeast display, Sf9 membrane polyspecificity reagent, FACS + sequencing; frameworks hold sequencing errors
MEASUREMENT_KIND: polyreactivity (PSR sort gate)

Observe how each entry below is paired with its result.
INSERT INTO assay_data (biopolymer_sequence, measurement_kind, result) VALUES
  ('QVQLVESGGGFVQAGGSLRLSCAASGRIFKQYGIGWYRQAPGKERELVAAIRSGDSTNYADSVKGRFTISRDNAKNTVYLQMNSLKPEDTAVYYCARDRPGDYAGYDYWGQGTQVTVSS', 'polyreactivity (PSR sort gate)', 'low polyreactivity'),
  ('QVQLVESGGGLVQAGGSLRLSCAASGPTFKRYAMGWYRQAPGKERELVAAITGTGAITYYADSVKGRFTISRDNAKNTVYLQMNSLKPEDTAVYYCAALGYYRYKYQASSNGFDYWGQGTQVTVSS', 'polyreactivity (PSR sort gate)', 'high polyreactivity'),
  ('QVQLVESGGGLVQAVGSHRLSSAASGFIFDYNAMGWYRQEPVKVRELVAAISVSDDSTYYADSVKGRFTISRDNAKNTVYLQLNSLKPEVPAGYYCAAEWWDVIAPYDYWGLGTQVTVSS', 'polyreactivity (PSR sort gate)', 'low polyreactivity'),
  ('QVQLVESGGGLVQAGGSLRLSCAASGFIFADYAMGWYRQAPGKERELVAAITRSGGRTYYADSVKGRFTISRDNAKNTVYLQMNSLKPEDTAVYYCAAVGPGRRRDYWGQGTQVTVSS', 'polyreactivity (PSR sort gate)', 'high polyreactivity');

Now consider a different sequence.
For QVQLVESGGGLVQAGGSLRLSCAASGFSFRYYAMGWYRQAPGKERELVAAISSSGTRTYYADSVKGRFTISRDNATTTVYLQMNSLKPEDTAVYYCNAGSPTSTVDYWGQGTQVTVSS , what is its reported polyreactivity (PSR sort gate)?
high polyreactivity
